Listing: IC50 of selected compounds
TARGET SYSTEM: UniProt:P08684
Sequence (P08684 whole entry): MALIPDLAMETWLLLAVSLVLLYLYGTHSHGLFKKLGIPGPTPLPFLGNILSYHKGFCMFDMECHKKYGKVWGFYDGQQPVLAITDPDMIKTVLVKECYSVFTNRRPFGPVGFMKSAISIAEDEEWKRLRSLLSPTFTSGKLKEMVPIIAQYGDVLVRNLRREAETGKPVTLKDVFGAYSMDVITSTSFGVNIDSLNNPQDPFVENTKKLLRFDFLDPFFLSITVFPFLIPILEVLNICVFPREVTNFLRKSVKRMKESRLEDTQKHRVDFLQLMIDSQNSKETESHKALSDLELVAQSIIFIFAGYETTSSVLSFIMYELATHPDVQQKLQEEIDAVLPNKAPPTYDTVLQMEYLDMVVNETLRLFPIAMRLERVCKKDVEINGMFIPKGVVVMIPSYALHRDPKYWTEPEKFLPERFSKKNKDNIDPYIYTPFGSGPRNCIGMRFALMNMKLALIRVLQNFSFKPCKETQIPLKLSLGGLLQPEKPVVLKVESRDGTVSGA
REPORTED METRIC: IC50 (µM)

• O=C1CC(c2cccc(O)c2)Oc2ccc(O)cc21 (stereo not drawn) [Compound 1] = 80
• O=C1CC(c2ccc(O)c(O)c2)Oc2ccc(O)cc21 (stereo not drawn) [Compound 3] = 65

----------
System: T. brucei bloodstream forms
PROTOCOL NOTES: Activity against T. brucei bloodstream forms (resazurin-based assay)
Type: cell-based, Trypanosoma brucei
TEST CONDITIONS: Trypanosoma brucei, bloodstream form; dose response
pEC50: −log10 of the molar value.
REPORTED METRIC: pEC50

• O=C1CC(c2cccc(O)c2)Oc2ccc(O)cc21 (stereo not drawn) [Compound 1] = 4.90
• O=C1CC(c2ccc(O)cc2)Oc2ccc(O)cc21 (stereo not drawn) [Compound 2] = 4.89
• O=C1CC(c2ccc(O)c(O)c2)Oc2ccc(O)cc21 (stereo not drawn) [Compound 3] = 4.46
